Reference for the values: ChEMBL document CHEMBL3351659

Assay: Inhibition of Baker's yeast alpha-glucosidase pre-incubated for 10 mins before para-nitrophenyl-alpha-D-glucopyranoside substrate addition
Parameters: species or system Saccharomyces cerevisiae
Label key: t means IC50 under 400 µM; f means IC50 of 400 µM or more.

# count of solved cases: 3
1) N[C@H]1C[C@@H](O)[C@H](O)[C@@H](O)[C@H]1O: f
2) N[C@@H]1C[C@@H](O)[C@H](O)[C@@H](O)[C@H]1O: t
3) O[C@@H]1[C@@H](O)[C@H](O)C[C@H](N[C@H]2C[C@H](O)[C@@H](O)[C@H](O)[C@@H]2O)[C@@H]1O: t

# input for lookup
State whether 400 µM exceeds IC50 recorded for OC1CC(N[C@H]2C[C@@H](O)[C@H](O)[C@@H](O)[C@H]2O)[C@@H](O)[C@@H](O)[C@@H]1O (single isomer, unassigned) . t
